Form field: remaining at 0.5 h, 1 µM (one value per entry).
# Procedure Summary: Metabolic stability in CD-1 mouse liver microsomes assessed as compound remaining at 1 uM preincubated for 5 mins followed by NADPH addition and measured after 30 mins by LC-MS/MS analysis
# Assay type: ADME, Microsome
# Test Context: read-out: Stability
Measurement Label: remaining at 0.5 h, 1 µM (%)

                                   molecule         measurement_label  quantitative_result
0  CC(c1nc(-c2ccc(NCc3ccc(C(=O)O)s3)cc2)no1)c1cccc2ccccc12 (centres undefined)  remaining at 0.5 h, 1 µM                 93.8
1  Cc1ccc(-c2noc(C(C)c3cccc(Oc4ccccc4)c3)n2)cc1NCc1ccc(C(=O)O)s1 (centres undefined)  remaining at 0.5 h, 1 µM                   80
2  Cc1ccc(-c2noc(C(C)c3ccc(-c4ccccc4)c(F)c3)n2)cc1NCc1ccc(C(=O)O)s1 (racemic)  remaining at 0.5 h, 1 µM                 99.1
3  CC(c1nc(-c2ccc(-c3ccc(C(=O)O)s3)cc2)no1)c1cccc2ccccc12 (centres undefined)  remaining at 0.5 h, 1 µM                  101

###

# Procedure Summary: Oral bioavailability in BALB/c mouse at 50 mg/kg measured upto 48 hrs by LC-MS/MS analysis
# Type: ADME, organism-based
# Test Context: in vivo
Measurement Label: bioavailability (%)

>>> df
                                   compound  measurement_label  quantitative_result
0  Cc1ccc(-c2noc(C(C)c3ccc(-c4ccccc4)c(F)c3)n2)cc1NCc1ccc(C(=O)O)s1 (racemic)    bioavailability                 39.1
1  CC(c1nc(-c2ccc(-c3ccc(C(=O)O)s3)cc2)no1)c1cccc2ccccc12 (configuration not stated)    bioavailability                  4.8

###

# Procedure Summary: AUC(0 to t) in BALB/c mouse at 50 mg/kg, po measured upto 48 hrs by LC-MS/MS analysis
# Type: ADME, organism-based
# Test Context: in vivo
Measurement Label: AUC(0-t) at 48 h (ng·h/mL)

In [3]: df
Out[3]:
                                   molecule  quantitative_result
0  CC(c1nc(-c2ccc(-c3ccc(C(=O)O)s3)cc2)no1)c1cccc2ccccc12 (configuration not stated)                17400
1  Cc1ccc(-c2noc(C(C)c3ccc(-c4ccccc4)c(F)c3)n2)cc1NCc1ccc(C(=O)O)s1 (racemic)                24300

###

# Procedure Summary: AUC(0 to infinity) in BALB/c mouse at 5 mg/kg, iv measured upto 48 hrs by LC-MS/MS analysis
# Assay type: ADME, organism-based
# Test Context: in vivo
Measurement Label: AUC(0-inf) (ng·h/mL)

>>> df
                                   compound  reading_unit  quantitative_result
0  CC(c1nc(-c2ccc(-c3ccc(C(=O)O)s3)cc2)no1)c1cccc2ccccc12 (configuration not stated)       ng·h/mL                36300
1  Cc1ccc(-c2noc(C(C)c3ccc(-c4ccccc4)c(F)c3)n2)cc1NCc1ccc(C(=O)O)s1 (racemic)       ng·h/mL                 6260

###

# Procedure Summary: AUC(0 to infinity) in BALB/c mouse at 50 mg/kg, po measured upto 48 hrs by LC-MS/MS analysis
# Type: ADME, organism-based
# Test Context: in vivo
Measurement Label: AUC(0-inf) (ng·h/mL)

                                   compound  reading_unit  quantitative_result
0  Cc1ccc(-c2noc(C(C)c3ccc(-c4ccccc4)c(F)c3)n2)cc1NCc1ccc(C(=O)O)s1 (racemic)       ng·h/mL                24400
1  CC(c1nc(-c2ccc(-c3ccc(C(=O)O)s3)cc2)no1)c1cccc2ccccc12 (configuration not stated)       ng·h/mL                17500

###

# Procedure Summary: Half life in BALB/c mouse at 50 mg/kg, po measured upto 48 hrs by LC-MS/MS analysis
# Format: ADME, organism-based
# Test Context: in vivo
Form field: half-life (one value per entry).
Measurement Label: half-life (h)

>>> print(df.to_string())
                                   compound  measurement_label  reading_unit  quantitative_result
0  Cc1ccc(-c2noc(C(C)c3ccc(-c4ccccc4)c(F)c3)n2)cc1NCc1ccc(C(=O)O)s1 (racemic)          half-life             h                 2.53
1  CC(c1nc(-c2ccc(-c3ccc(C(=O)O)s3)cc2)no1)c1cccc2ccccc12 (configuration not stated)          half-life             h                  6.5

###

# Procedure Summary: AUC(0 to t) in BALB/c mouse at 5 mg/kg, iv measured upto 48 hrs by LC-MS/MS analysis
# Assay type: ADME, organism-based
# Test Context: in vivo
Measurement Label: AUC(0-t) at 48 h (ng·h/mL)

In [3]: df
Out[3]:
                                   molecule  quantitative_result
0  CC(c1nc(-c2ccc(-c3ccc(C(=O)O)s3)cc2)no1)c1cccc2ccccc12 (configuration not stated)                36300
1  Cc1ccc(-c2noc(C(C)c3ccc(-c4ccccc4)c(F)c3)n2)cc1NCc1ccc(C(=O)O)s1 (racemic)                 6210

###

# Procedure Summary: Metabolic stability in human hepatocytes assessed as compound remaining at 1 uM measured after 30 mins
# Assay type: ADME, cell-based, Hepatocyte
# Test Context: read-out: Stability
Form field: remaining at 0.5 h, 1 µM (one value per entry).
Measurement Label: remaining at 0.5 h, 1 µM (%)

>>> print(df.to_string())
                                   molecule  quantitative_result
0  Cc1ccc(N)cc1C(=O)N[C@H](C)c1cccc2ccccc12                   63
1  CC(c1nc(-c2cc(NCc3ccc(C(=O)O)s3)cc(C(F)(F)F)c2)no1)c1cccc2ccccc12 (stereo not drawn)                 79.8
2  CC(c1nc(-c2cc(NCc3ccc(C(=O)O)cc3)cc(C(F)(F)F)c2)no1)c1cccc2ccccc12 (stereo not drawn)                 56.6

###

# Procedure Summary: Metabolic stability in human hepatocytes assessed as intrinsic clearance per million cells at 1 uM measured upto 30 mins
# Assay type: ADME, cell-based, Hepatocyte
# Test Context: read-out: CLH
Measurement Label: hepatocyte CLint at 1 µM (µL/min/1e6 cells)

In [3]: df
Out[3]:
                                   compound         measurement_label  quantitative_result
0  CC(c1nc(-c2cc(NCc3ccc(C(=O)O)cc3)cc(C(F)(F)F)c2)no1)c1cccc2ccccc12 (stereo not drawn)  hepatocyte CLint at 1 µM                   19
1  CC(c1nc(-c2cc(NCc3ccc(C(=O)O)s3)cc(C(F)(F)F)c2)no1)c1cccc2ccccc12 (stereo not drawn)  hepatocyte CLint at 1 µM                  7.5
2  Cc1ccc(N)cc1C(=O)N[C@H](C)c1cccc2ccccc12  hepatocyte CLint at 1 µM                 15.4

###

# Target System: Replicase polyprotein 1ab (Severe acute respiratory syndrome coronavirus 2, UniProt P0DTD1)
pIC50: −log10 of the molar value.
Form field: pIC50 (one value per entry).
Measurement Label: pIC50

In [3]: df
Out[3]:
                                    compound  measurement_label  qualifying_sign  quantitative_result
 0  CC(c1ncc(-c2ccc(-c3ccc(C(=O)O)s3)cc2)o1)c1cccc2ccccc12 (configuration not stated)              pIC50                =                 5.11
 1  Cc1ccc(-c2noc([C@H](C)c3ccc(-c4ccccc4)c(F)c3)n2)cc1NCc1ccc(C(=O)O)s1              pIC50                =                 5.40
 2  Cc1ccc(-c2noc(C(C)c3cccc(C(O)c4ccccc4)c3)n2)cc1NCc1ccc(C(=O)O)s1 (configuration not stated)              pIC50                =                 4.95
 3  Cc1ccc(-c2noc(C(c3ccccc3)c3ccccc3)n2)cc1NCc1ccc(C(=O)O)s1              pIC50                =                 5.05
 4  COC1CCC(Nc2ccc(C)c(-c3noc(C(C)c4cccc5ccccc45)n3)c2)CC1 (configuration not stated)              pIC50                =                 3.94
 5  CC(c1noc(-c2ccc(-c3ccc(C(=O)O)s3)cc2)n1)c1cccc2ccccc12 (configuration not stated)              pIC50                =                 5.68
 6  Cc1ccc(NC2CCC(C#N)CC2)cc1-c1noc(C(C)c2cccc3ccccc23)n1 (configuration not stated)              pIC50                <                 3.70
 7  CC(c1nc(-c2ccc(Nc3ccc(C(=O)O)cc3)cc2)no1)c1cccc2ccccc12 (configuration not stated)              pIC50                =                 5.38
 8  Cc1ccc(NC2CCCC(C(=O)O)C2)cc1-c1noc(C(C)c2cccc3ccccc23)n1 (configuration not stated)              pIC50                =                 4.45
 9  Cc1ccc(NC2CCC(C(=O)O)CC2)cc1-c1noc(C(C)c2cccc3ccccc23)n1 (configuration not stated)              pIC50                =                 4.64
10  COc1ccc2cc([C@H](C)c3nc(-c4ccc(C)c(NCc5ccc(C(=O)O)s5)c4)no3)ccc2c1              pIC50                =                 5.24
11  Cc1ccc(NCc2ccc(C(=O)O)o2)cc1-c1noc(C(C)c2cccc3ccccc23)n1 (configuration not stated)              pIC50                =                 4.84
